Quick reference for viability at 10 µM among some compounds
experiment: Cytotoxicity against human 293T cells at 10 uM by MTS assay; format: cell-based, HEK-293T; details: read-out: Survival
// note: answer is a bare numeric in %

Query :: Could you tell me which viability at 10 µM is on file for `O=[N+]([O-])c1ccc(NC(=S)c2ccc([N+](=O)[O-])cc2)cc1` ?
Result :: 44

Query :: Could you tell me which viability at 10 µM is on file for `O=C(Nc1ccc(C(F)(F)F)cc1)c1ccc([N+](=O)[O-])cc1` ?
Result :: 87.7

Query :: Could you tell me which viability at 10 µM is on file for `O=C(Nc1ccc([N+](=O)[O-])cc1)c1ccc([N+](=O)[O-])cc1` ?
Result :: 85.2

More entries:
Query :: Could you tell me which viability at 10 µM is on file for `O=[N+]([O-])c1ccc(C(=S)Nc2ccc(C(F)(F)F)cc2)cc1` ?
Result :: 41.2

Query :: Could you tell me which viability at 10 µM is on file for `O=C(Nc1ccc(Br)cc1)c1ccc([N+](=O)[O-])cc1` ?
Result :: 86.9

Query :: Could you tell me which viability at 10 µM is on file for `O=[N+]([O-])c1ccc(C(=S)Nc2ccc(Br)cc2)cc1` ?
Result :: 48.4
